B1: HDV Ribozyme (parent)
chain: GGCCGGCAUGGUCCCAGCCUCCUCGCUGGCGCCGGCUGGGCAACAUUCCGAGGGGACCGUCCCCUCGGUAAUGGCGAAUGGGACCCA

- Variants of: B1
- assay_name: self-cleavage, relative activity (ratio to wild type); higher = more cleavage; co-transcriptional
Recorded self-cleavage determines the group label, using low band: < 0.2; middle band: ≥ 0.2 and < 0.6; high band: ≥ 0.6

# sequence_variant, classification
measured = [
    ("C57U U60C", "high band"),
    ("A16C G74A", "low band"),
    ("C48U G73U", "middle band"),
    ("G34C A56U", "middle band"),
    ("U47C C66U", "high band"),
    ("G39A C61G", "middle band"),
    ("C13U C48G", "middle band"),
    ("A43G G53C", "middle band"),
    ("C32U A70C", "high band"),
    ("A42C U69A", "low band"),
    ("U47C A87G", "high band"),
    ("C21A A43G", "low band"),
    ("G29A C63G", "low band"),
    ("G28U C61G", "low band"),
    ("G10U C13G", "low band"),
    ("G50A A56U", "high band"),
    ("C33U C85U", "high band"),
    ("G10A C36U", "middle band"),
    ("A8G C66A", "high band"),
    ("G5A G82U", "low band"),
    ("G10C U37G", "middle band"),
]

Hey, just so you know, these numbers are from the RNAGym collection of RNA variant scans (doi:10.7554/elife.80360).
